Origin of measurements: the supplement of paper PMC12042874

- run_description: amyloid nucleation score (Sup35N fusion, yeast selection) (log enrichment); library NNK2; higher = more nucleation; inactive = no reads after selection;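 also: zero at mode of non-aggregating sequences after 7 days selection at 30°C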
For each of the substances below, state its amyloid nucleation score.
Answers are plain numbers.

Solved cases below.
- substance: "SFGCINTCFCMCSCFVREMD"
  amyloid nucleation score: 1.5
- substance: "LGTNMAMVGSN"
  amyloid nucleation score: -0.623
- substance: "WQSSSILIASSCVRSPGLPV"
  amyloid nucleation score: 0.27
- substance: "YIPNDCTTRDCLTYMMSWMF"
  amyloid nucleation score: -0.077
- substance: "IWDEQCRTLCGARCNDVSAW"
  amyloid nucleation score: 0.799

Please go through the list and note amyloid nucleation score for each substance.
1. SGIALFKPSCSVGVAQFDYE
2. AFWVLTVPLGSWYCACYCYS
3. RRFVCRCFRYTHECVLGCFG

**Result**
1: -0.024; 2: -0.662; 3: 1.52

###

- run_description: amyloid nucleation score (Sup35N fusion, yeast selection) (log enrichment); library NNK1; higher = more nucleation; inactive = no reads after selection
Output label 1 for amyloid nucleation score not less than -0.1; output label 0 otherwise.

Example cases with answers are listed next.
- substance: "LSSYGYHMRVDHVTNANPSR"
  group_label: "label 1"
- substance: "ISCQQSE"
  group_label: "label 0"
- substance: "CSQLLKLTQSAYLFFVNQDS"
  group_label: "label 1"
- substance: "ILGVFNTIVVFKR"
  group_label: "label 1"
- substance: "PRCNSFNSYCFA"
  group_label: "label 1"
- substance: "VVVSLK"
  group_label: "label 0"

**Query** Please indicate if the recorded amyloid nucleation score for `RGSWIPVKQRLKVPQRDGLG` meets or exceeds -0.1.
**Result** label 1

**Query** Another substance to check: `LCAFMSYLSSIFSRYNCFYV`
**Result** label 1

**Query** Another substance to check: `GQNLGRSRLGNVYRGPCGNC`
**Result** label 1

**Query** Another substance to check: `AWCSSDGCFCPKRYMLLRSL`
**Result** label 1

**Query** Another substance to check: `GLDCVRGNQWVNQGVL`
**Result** label 1

**Query** Another substance to check: `IFVVGAGLHDKTNGYVYRSR`
**Result** label 1

**Query** Another substance to check: `RKIEWTVSLRGGRKCYFSGE`
**Result** label 1

**Query** Another substance to check: `CTGSVWYAPLWMWWEWLR`
**Result** label 1

**Query** Another substance to check: `LSHWMPVN`
**Result** label 0

**Query** Another substance to check: `MRMISFKTVGALFVYCLSLG`
**Result** label 1

**Query** Another substance to check: `FYGTLVCVRRYSVVLNSNLE`
**Result** label 1

**Query** Another substance to check: `YFRSSGGAFFGNLDVCGNYV`
**Result** label 1

**Query** Another substance to check: `ISFYTVRWLAAGRRFLISF`
**Result** label 1

**Query** Another substance to check: `LSYRCVVYSVMIWSDIRALV`
**Result** label 1

**Query** Another substance to check: `PSHYWNRVLLIWRLSGCVVY`
**Result** label 0

###

- run_description: amyloid nucleation score (Sup35N fusion, yeast selection) (log enrichment); library NNK3; higher = more nucleation; inactive = no reads after selection
measured_attribute: amyloid nucleation score

Solved cases below.
- substance: "FLQECRDCQGTVRNKSSAP"
  amyloid nucleation score: "inactive"
- substance: "TLRGMGQHRQR"
  amyloid nucleation score: "inactive"
- substance: "PTFCNQNFGNTFGCKRFYLS"
  amyloid nucleation score: "inactive"
- substance: "GMAEFALQWIRMIGRL"
  amyloid nucleation score: 0.214
- substance: "GRTYSGYTGWRGVLGHDLVM"
  amyloid nucleation score: "inactive"

Please go through the list and note amyloid nucleation score for each substance.
1. TYTSVGETS
2. STYLGDVSLSFVRVWSVNGS
3. NIVLFGKRVNFFYLTNDVVK
4. RLMDITL

**Result**
["inactive", 1.29, 1.97, "inactive"]
